# TEST_PROTOCOL: decrease of insulin promoter-GFP reporter – imaging, high-content screening, mouse beta cells (AID 1628)
# APPLIED_CONDITIONS: MIN6 insulin promoter GFP reporter, at 5 µM
About 930 (0.49%) of roughly 190,000 compounds were called active.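 The calls were made as follows: active = z-score of insulin promoter reporter brightness in nuclei below -3 at 5 µM, with at least 500 cells counted; inconclusive = wells with under 500 cells, flagged as toxic or sparse; inactive = the rest.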 The list shows a part of the results. Measured potencies and affinities stand elsewhere.
Possible outcomes: Yes (active), No (inactive)

{"columns": ["MOLECULE", "CLASSIFICATION"],
 "data": [
  ["CCOC(=O)C1=C(c2ccccc2)NC(N)=NC1c1ccc(OCc2ccc(Cl)cc2)c(OC)c1 (centres undefined)", "Yes"],
  ["COc1ccc(Cl)cc1NC(=O)c1c(-c2ccccc2)noc1C", "No"],
  ["CCOC(=O)C1=C(C)NC(=O)NC1c1ccc(N2CCC(c3ccccc3)=N2)cc1 (centres undefined)", "No"],
  ["CCOC(=O)c1cnn(-c2cc(C)nc3c(-c4ccccc4)cnn23)c1N", "No"]
]}

* * *

# TEST_PROTOCOL: decrease of insulin promoter-GFP reporter – imaging, high-content screening, mouse beta cells (AID 1628)
# APPLIED_CONDITIONS: MIN6 insulin promoter GFP reporter, at 5 µM
Among all 190,000 compounds or so, about 930 (0.49%) were called active.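 Rule for the calls: active = z-score of insulin promoter reporter brightness in nuclei below -3 at 5 µM, with at least 500 cells counted; inconclusive = wells with under 500 cells, flagged as toxic or sparse; inactive = the rest.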 This is one part of the list. Entries with a potency or affinity are not part of this list.
Possible outcomes: active, inactive

{"columns": ["MOLECULE", "CLASSIFICATION"],
 "data": [
  ["C/C(=C\\c1ccccc1)CN1CCN(c2ccccc2)CC1", "inactive"],
  ["O=C(O)C1CC=CCC1C(=O)Nc1ccc(N2CCN(Cc3ccccc3)CC2)cc1 (stereo not drawn)", "active"],
  ["COc1cc2c(cc1OC)-c1nncn1C(C)(C)C2", "inactive"]
]}

* * *

# TEST_PROTOCOL: decrease of insulin promoter-GFP reporter – imaging, high-content screening, mouse beta cells (AID 1628)
# APPLIED_CONDITIONS: MIN6 insulin promoter GFP reporter, at 5 µM, hits give low values
About 930 (0.49%) of roughly 190,000 compounds were called active. Some of the results follow. Measured potencies and affinities stand elsewhere.
Item-by-item account of z-score
REPORTED_PROPERTY: z-score

{"columns": ["COMPOUND", "RESULT"],
 "data": [
  ["O=C(OCC(=O)N1CCN(C(=O)c2ccco2)CC1)c1ccccc1OCc1ccccc1", "11.8 (inactive)"],
  ["Cc1cccc(N2CCN(C(c3ccccc3)c3nnnn3CC3CCCO3)CC2)c1C (configuration not stated)", "-3.05 (active)"],
  ["Cc1cc(S(=O)(=O)NC2CCCCC2)c(C)s1", "3.49 (inactive)"],
  ["CCc1ccc(CN(C)C(=O)CCc2nnc(-c3ccc(-c4ccccc4)cc3)o2)nc1", "-3.31 (active)"],
  ["COc1ccc(N(CC(=O)Nc2cc(OC)ccc2OC)S(C)(=O)=O)cc1", "0.8 (inactive)"],
  ["CCC(=O)NC(c1cccs1)c1cc(Cl)c2cccnc2c1O (configuration not stated)", "-4.24 (active)"],
  ["C=C(C)Cn1c(=S)[nH]c2ccccc2c1=O", "-6.61 (active)"],
  ["CCC(=O)Nc1ccc(C(=O)Cn2ncc(Cl)c(Cl)c2=O)cc1", "-3.05 (active)"],
  ["COc1ccc(C2=NC(=O)/C(=C\\c3cc(OC)c(OC)c(OC)c3)O2)cc1", "3.04 (inactive)"],
  ["CN(C)c1ccc(/C=C2\\SC(=S)N(Nc3ncc(C(F)(F)F)cc3Cl)C2=O)cc1", "4.86 (inactive)"],
  ["CCCN1C(=O)c2ccccc2NC1c1ccc(C)cc1 (configuration not stated)", "2.64 (inactive)"],
  ["O=S(=O)(c1ccc(Br)cc1)N1CCN(c2cc(-c3ccccc3)nc3ncnn23)CC1", "-6.61 (active)"]
]}
